target: mALDH1a2 (Mus musculus, UniProt Q62148); assay: Aldh1a2 enzyme inhibition assay (resorufin fluorescence), mouse enzyme; details: recombinant enzyme, 20° C., activity level classes
Sequence (Q62148 whole entry): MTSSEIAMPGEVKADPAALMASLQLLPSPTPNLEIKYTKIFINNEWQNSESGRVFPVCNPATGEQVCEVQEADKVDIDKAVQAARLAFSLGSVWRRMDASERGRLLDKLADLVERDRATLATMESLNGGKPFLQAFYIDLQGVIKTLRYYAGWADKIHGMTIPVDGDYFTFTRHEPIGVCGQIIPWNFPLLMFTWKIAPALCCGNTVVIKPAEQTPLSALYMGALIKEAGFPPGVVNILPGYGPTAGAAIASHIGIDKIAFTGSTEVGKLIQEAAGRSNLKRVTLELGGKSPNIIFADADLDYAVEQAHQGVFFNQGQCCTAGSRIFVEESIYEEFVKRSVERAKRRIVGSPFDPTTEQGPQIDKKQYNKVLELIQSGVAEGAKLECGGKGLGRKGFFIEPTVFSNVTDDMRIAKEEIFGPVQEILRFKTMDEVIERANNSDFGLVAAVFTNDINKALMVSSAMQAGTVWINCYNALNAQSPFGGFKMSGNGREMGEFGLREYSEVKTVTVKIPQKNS
READOUT_NAME: IC50

Known IC50 results, listed for orientation:
COMPOUND | READOUT_NAME | TEST_VALUE
CCc1ncsc1C(=O)Nc1cc(Cl)c2c(c1)CCC(=O)N2 [Compound 36] | IC50 | 250 to 1000 nM
Cc1c(F)c(NC(=O)c2ncsc2CC(F)(F)F)cc2c1NC(=O)CC2 | IC50 | 250 to 1000 nM

Request: Consider the compound Cc1c(Cl)c(NC(=O)c2ncsc2CC(F)(F)F)cc2c1NC(=O)CC2 and give its recorded IC50.
Response: < 100 nM

Request: Consider the compound CCc1ncsc1C(=O)Nc1cc(C)c2c(c1)CCC(=O)N2 and give its recorded IC50.
Response: 250 to 1000 nM

Request: Consider the compound Cc1cc(NC(=O)c2ccncc2-c2ccc(C#N)cc2)cc2c1NC(=O)CC2 and give its recorded IC50.
Response: > 5000 nM

Request: Consider the compound Cc1cc(NC(=O)c2ccncc2-c2cccc(F)c2)cc2c1NC(=O)CC2 and give its recorded IC50.
Response: 250 to 1000 nM

Request: Consider the compound O=C(Nc1cc(F)c2c(c1)C1CC1C(=O)N2)c1ocnc1CC(F)(F)F (stereo not drawn) and give its recorded IC50.
Response: 250 to 1000 nM

Request: Consider the compound O=C1CCc2cc(NC(=O)c3scnc3CC(F)(F)F)cc(Cl)c2N1 and give its recorded IC50.
Response: 250 to 1000 nM

Request: Consider the compound Cc1c(Cl)c(NC(=O)c2scnc2CC(F)(F)F)cc2c1NC(=O)CC2 and give its recorded IC50.
Response: 250 to 1000 nM
